- Test system: CAKI-1 renal
- measurement.description: NCI-60 one-dose screen, 48 h
- test.parameters: 10 µM unless noted
- Procedure: Growth inhibition of the CAKI-1 human tumor cell line is measured as a screen for anti-cancer activity. Cells are grown in 96 well plates and exposed to the test compound for 48 hours. Compounds are tested at a single concentration, which is 10^-5 M for most compounds. The reported endpoint is percent growth (GI% or GIPRCNT), where numbers from 0 - 100% represent growth inhibition, and numbers from -100% - 0 represent cell death. For example, a value of 40 represents 60% growth inhibition. […]
Compounds without any hit were thinned out: in the full panel of roughly 83,000, 20% have a hit. Active and inactive are the calls of the source. The calls were made as follows: active = growth percent below 10; inactive = the rest.
The reply should name one outcome from YES for active, NO for inactive

INPUT: Lab log entry: CC1(C)C(=O)/C(=C\c2ccccn2)C[C@]2(C)[C@H]3CC[C@@H]4[C@@H](C(=O)/C=C/c5ccccn5)CC[C@@]4(C)[C@]3(C)CC[C@@H]12 — outcome as called in the assay?
OUTPUT: YES

INPUT: Repeat for the following compound: COC(=O)[C@]12CC[C@@H](C)[C@H](C)[C@@H]1C1=CC[C@@H]3[C@@]4(C)C(c5ncon5)=C[C@@](C)(CO)C4=CC[C@@]3(C)[C@]1(C)CC2
OUTPUT: NO

====

- Test system: OVCAR-8 ovarian
- measurement.description: NCI-60 one-dose screen, 48 h (100 = growth as untreated, 0 = no growth, -100 = all killed)
- test.parameters: 10 µM unless noted
This is part of a sample that, as a whole, favours compounds with a hit. Of some 83,000 tested, about 20% had one in any assay.
growth vs 70%: less than gives class 1; not less than gives class 0.

These recorded examples may help you get a feel for the data.
chemical.string: O=C(CI)Nc1ccc(O)c2ccccc12
label.class: class 1
//
chemical.string: CC(C)c1cc(C(=O)O)c(O)c(C(C)C)c1.CC(C)c1cc(C(=O)O)c(O)c(C(C)C)c1.[Mn]
label.class: class 0
//
chemical.string: COc1cc(-c2nc(-c3ccccc3)c(-c3ccccc3)[nH]2)cc(OC)c1O
label.class: class 1
//
chemical.string: Nc1ccc(Br)cn1
label.class: class 0
//
chemical.string: Cn1cc(-c2nc(-c3cn(C)c4ncccc34)cs2)c2cc(F)ccc21
label.class: class 1
//
chemical.string: C=C1CC[C@@H](C(=O)OC)Cc2nc(C)ccc21
label.class: class 0
//
chemical.string: CN(C)c1ccc(N)c2ccccc12
label.class: class 0
//
chemical.string: COc1cc(/C=N/Nc2ncnc3c2c(C)nn3-c2ccc(F)cc2)ccc1O
label.class: class 0
//
chemical.string: O=C(/C=C/c1cccc2ccccc12)Nc1ncc(Cc2ccccc2)s1
label.class: class 1
//
chemical.string: C=C(C)[C@@H]1CC[C@]2(CN)CC[C@]3(C)[C@H](CC[C@@H]4[C@@]5(C)CCC(=O)NC(C)(C)[C@@H]5CC[C@]43C)[C@@H]12
label.class: class 1

INPUT: growth under 70%? Item: Cc1ccc(/C=C(\C#N)c2cc3ccccc3n2C)cc1
OUTPUT: class 1

INPUT: Repeat for the following compound: C=C1C(=O)O[C@H]2[C@H]1CC/C(COC(=O)NCc1cc3ccccc3[nH]1)=C\CC[C@@]1(C)O[C@@H]21
OUTPUT: class 1

====

- Test system: SR leukemia
- measurement.description: NCI-60 one-dose screen, 48 h
- test.parameters: 10 µM unless noted
About 83,000 compounds went through this panel and 20% of them were active in at least one assay; those are over-represented in the sample as a whole. Calls of active or inactive are those of the source. How the source made its calls: active means growth percent below 10; inactive means the rest.
The reply should name one outcome from active, inactive

chemical.string: Cc1cc(N2CCCCC2)nc(N(CCNc2ccnc3cc(Cl)ccc23)Cc2ccco2)n1
label.class: active
--
chemical.string: Nc1ncnc2nc(Br)[nH]c12
label.class: inactive

With those in mind, consider the next molecule.
INPUT: Lab log entry: Cc1ccc(N(CC(=O)Nc2ccc(S(=O)(=O)N3CCC(N4CCCC4)CC3)cc2)S(=O)(=O)c2ccc(Cl)cc2)cc1 — outcome as called in the assay?
OUTPUT: active
